# Tested on: K562
# procedure.summary: NCI tumour cell line growth inhibition, 48 h
Activity calls are given as the source filed them. Cut-off read from the data, not from the text of the source: active = GI50 up to about 1.1 µM and inactive = higher.
Assign a class; possible classes are yes = active, no = inactive

The following molecules have reported results that may help.
INSERT INTO assay_data (molecule, class_name) VALUES
  ('O=c1c2cc([N+](=O)[O-])ccc2n(Cc2ccccc2)n1Cc1ccccc1', 'no'),
  ('CC(C)(Oc1ccc2c(=O)cc(-c3ccccc3)oc2c1)C(=O)N1CCN(c2ccccc2)CC1', 'no'),
  ('COc1ccc2c(c1)CCc1cnn(C3OC(COC(C)=O)C(OC(C)=O)C(OC(C)=O)C3OC(C)=O)c1-2 (centres undefined)', 'no'),
  ('Cc1ccc2c(c1C)C(=O)/C(=C/c1cccc(C)c1C(=O)O)C2', 'no'),
  ('O=C(Cc1ccc(Cl)c(Cl)c1)NCCCN1CCN(CCCN2CCCCC2)CC1', 'no'),
  ('CN(C)CCc1c2c(nc3ccccc13)C(=O)c1cccnc1C2=O', 'yes'),
  ('Cc1cc(OC(=O)c2c(C)cc(OC(=O)c3c(C)cc(O)cc3O)cc2O)cc(O)c1C(=O)O [GYROPHORIC ACID]', 'no'),
  ('COc1cc(C=O)c(-c2cc(OC)c(OC)cc2C=O)cc1OC', 'no');

*Q* So what was the verdict on COc1cc2cc3c4c(cc(OC)c(OC)c4c2cc1OC)CCN3C(=O)OCCN1CCNCC1 in this test?
*A* no

*Q* Now consider O=c1c2c3c(sc2nc2n1N=CN(c1ccc(F)cc1)C2)CCCC3 and answer again.
*A* no

*Q* Same lookup for O=[N+]([O-])c1ccc(Cl)cc1C1ON=C(c2ccccc2)N1C12CC3CC(CC(C3)C1)C2 (centres undefined) , please.
*A* no

*Q* Ok, now Oc1c(Cl)cc(CN(Cc2cc(Cl)c(O)c(Cl)c2)C2CCCCC2)cc1Cl
*A* no

*Q* Further, for CC1(C)CC(C2CC(C)(C)CC(C)(C)[C@H]2O)[C@@H](O)C(C)(C)C1 (some centres undefined) ?
*A* no

*Q* CC(C)(C)OC(=O)N1CCC2(C)CC(=O)CC=C12 (centres undefined) ?
*A* no

*Q* And the next one, O=C(CCc1ccc(O)cc1)NCCc1cccc(O)c1 ?
*A* no

*Q* Same for COc1cc(C2c3cc4c(cc3OC(NNS(=O)(=O)c3ccc(C)cc3)C2C)OCO4)cc(OC)c1OC (centres undefined)
*A* yes

*Q* Query C=C(C)[C@H]1C2=CC(C)=C(O2)[C@@H](O[C@@H]2c3oc(cc3C)[C@H](C(=C)C)[C@H]3C=C(CC[C@H]2C(=C)C)C(=O)O3)[C@H](C(=C)C)CCC2=C[C@H]1OC2=O next
*A* no

*Q* What do you get for CSc1nc2c(nc(N)n2C2OCC(O)C(O)C2O)c(=O)[nH]1 (centres undefined) ?
*A* no

*Q* Repeat for the following molecule: CCOC(=O)c1cc2c(C(=O)c3ccc([N+](=O)[O-])cc3)c(C(C)=O)ccc2[nH]1
*A* no

*Q* Request: CC(C)(C)C(=O)N1C(C(=O)O)Cc2ccccc2[C@@H]1Cc1ccccc1 (some centres undefined)
*A* no

*Q* Proceed to CCC(=O)OCc1ccc2oc(=O)c(C(=O)Oc3cncc(Cl)c3)cc2c1
*A* no

*Q* Item: O=C(O)C(CSC(c1ccccc1)(c1ccccc1)c1ccccc1)/N=C/c1cccs1 (centres undefined)
*A* no

*Q* Try the molecule CC12c3c4ccc(C=O)c3Oc3ccc(C=O)c(c31)Oc1ccc(C=O)c(c12)O4
*A* no

*Q* Also need COc1ccc2c(c1)c[n+](C)c1c3cc(OC)c(OC)cc3ccc21 , thanks.
*A* no
